System: MDA-MB-435 melanoma
Test: NCI-60 one-dose screen, 48 h (100 = growth as untreated, 0 = no growth, -100 = all killed)
Conditions: 10 µM unless noted
Experimental: Growth inhibition of the MDA-MB-435 human Melanoma tumor cell line is measured as a screen for anti-cancer activity. Cells are grown in 96 well plates and exposed to the test compound for 48 hours. Compounds are tested at a single concentration, which is 10^-5 M for most compounds. The reported endpoint is percent growth (GI% or GIPRCNT), where numbers from 0 - 100% represent growth inhibition, and numbers from -100% - 0 represent cell death. […]
Compounds without any hit were thinned out: in the full panel of roughly 83,000, 20% have a hit.
I'd be grateful if you could share measured growth for these entries.
Give bare numbers, in %.

Use the examples below as a reference point.
CC(=O)c1c(C)[nH]c(-c2nc3ccc(N4CCN(C)CC4)cc3[nH]2)c1-c1ccccc1 | 19.8
O=C(OC(OC(=O)c1cc(Cl)cc(Cl)c1)c1cccc2ccccc12)c1ccccc1 (stereo not drawn) | 111

The compound listed as O=C(Nc1sc2c(c1C(=O)O)CCCC2)c1cccc(C(F)(F)F)c1 has a reported growth of 86.2

----------
Test system: A498 renal
Assay: NCI-60 one-dose screen, 48 h (100 = growth as untreated, 0 = no growth, -100 = all killed)
Conditions: 10 µM unless noted
Description: Growth inhibition of the A498 human tumor cell line is measured as a screen for anti-cancer activity. Cells are grown in 96 well plates and exposed to the test compound for 48 hours. Compounds are tested at a single concentration, which is 10^-5 M for most compounds. The reported endpoint is percent growth (GI% or GIPRCNT), where numbers from 0 - 100% represent growth inhibition, and numbers from -100% - 0 represent cell death. For example, a value of 40 represents 60% growth inhibition. […]
About 83,000 compounds went through this panel and 20% of them were active in at least one assay; those are over-represented in the sample as a whole.
READOUT NAME: growth (%)
Answers are plain numbers, in %.

Use the examples below as a reference point.
O=c1[nH]c2c(s1)CCCC2CN1CCCCC1 (stereo not drawn) | 95.8
C=C1C(=O)O[C@H]2[C@H]1CC/C(COC(=O)CCCc1c[nH]c3ccccc13)=C\CC[C@@]1(C)O[C@@H]21 | 103
COc1cc(/C=N/NC(=O)c2ccccc2Nc2cccc(C(F)(F)F)c2)ccc1O | 76.9
Clc1cc(Cl)cc(N2N=C(c3cccc(Nc4ccncc4)c3)CC2c2ccccc2)c1 (stereo not drawn) | 103
Cn1c(COC(=O)NCCn2ccnc2)nc2c(N3CCOCC3)nc(-c3ccccc3)nc21 | -24.2
CC(C)(O)C1CCCN1C(=O)c1ccccc1I (stereo not drawn) | 73.6
O=C(CN1CCOCC1)Nc1ccc2ncnc(Nc3ccc(OCc4cccc(F)c4)c(Cl)c3)c2c1 | 28
C[C@]12C[C@H]1CC[C@]1(C)[C@@H]2CC[C@@]23C[C@H](CC[C@H]21)[C@@](O)(CO)C3 | 92.9
COc1ccc(-c2nc(N/N=C/c3ccco3)nc(N3CCOCC3)c2C#N)cc1 | 6.67
COc1cc2nc(Cc3ccc(C)cc3)[nH]c(=O)c2cc1OC | 90.6

# batch size: 3; output growth per entry
1. CC(N)C(=O)NNc1n[nH]c(=S)n1N (stereo not drawn)
2. Cc1c([N+](=O)[O-])cc(C(C)(C)C)cc1[N+](=O)[O-]
3. CN1CCN(c2c(F)cc(NC3=C(Cl)C(=O)c4ncccc4C3=O)cc2F)CC1

94.8
93.8
88.1
